Molecular target: MAL^TIR (Homo sapiens, UniProt P58753)
Construct: MAL (residues 79–221); 6xHis; made in house; host or cells: E. coli BL21 (DE3)
Sequence (P58753 79-221): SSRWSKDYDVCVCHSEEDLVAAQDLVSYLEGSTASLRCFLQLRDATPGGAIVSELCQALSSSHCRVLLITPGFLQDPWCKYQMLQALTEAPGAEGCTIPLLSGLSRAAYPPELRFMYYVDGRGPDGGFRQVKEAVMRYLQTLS
Assay: T‐Surf phage library (P8 and P3) selection against MAL^TIR, four rounds, NGS read counts
Format: binding
Conditions: P3_MAL: rank by count after grouping
So I've got a bunch of sequences here, and I need their Rank (after) values.

Exercise: Form field: reported Rank (after) of RLLKWKDALYEAANLS
Key: 110

Exercise: I have this sequence here, SSFREGLWRLPELCKK , and I need its recorded Rank (after).
Key: 430

Exercise: // Rank (after) lookup, key: YAFTGHLPRYLVQRGG
Key: 425

Exercise: What Rank (after) value was documented for this sequence, KEVEGWRDALTKVANLV ?
Key: 134

Exercise: // lookup Rank (after) for LGFFCNQAKALSDRGI
Key: 435

Exercise: // Rank (after) lookup, key: RSFRDGLWRLLELSKK
Key: 160

Origin of values: paper PMC11714206
